Biological target: hERG (Homo sapiens, UniProt Q12809)
Construct: host or cells: HEK293 cells stably overexpressing hERG
Sequence (Q12809 whole entry): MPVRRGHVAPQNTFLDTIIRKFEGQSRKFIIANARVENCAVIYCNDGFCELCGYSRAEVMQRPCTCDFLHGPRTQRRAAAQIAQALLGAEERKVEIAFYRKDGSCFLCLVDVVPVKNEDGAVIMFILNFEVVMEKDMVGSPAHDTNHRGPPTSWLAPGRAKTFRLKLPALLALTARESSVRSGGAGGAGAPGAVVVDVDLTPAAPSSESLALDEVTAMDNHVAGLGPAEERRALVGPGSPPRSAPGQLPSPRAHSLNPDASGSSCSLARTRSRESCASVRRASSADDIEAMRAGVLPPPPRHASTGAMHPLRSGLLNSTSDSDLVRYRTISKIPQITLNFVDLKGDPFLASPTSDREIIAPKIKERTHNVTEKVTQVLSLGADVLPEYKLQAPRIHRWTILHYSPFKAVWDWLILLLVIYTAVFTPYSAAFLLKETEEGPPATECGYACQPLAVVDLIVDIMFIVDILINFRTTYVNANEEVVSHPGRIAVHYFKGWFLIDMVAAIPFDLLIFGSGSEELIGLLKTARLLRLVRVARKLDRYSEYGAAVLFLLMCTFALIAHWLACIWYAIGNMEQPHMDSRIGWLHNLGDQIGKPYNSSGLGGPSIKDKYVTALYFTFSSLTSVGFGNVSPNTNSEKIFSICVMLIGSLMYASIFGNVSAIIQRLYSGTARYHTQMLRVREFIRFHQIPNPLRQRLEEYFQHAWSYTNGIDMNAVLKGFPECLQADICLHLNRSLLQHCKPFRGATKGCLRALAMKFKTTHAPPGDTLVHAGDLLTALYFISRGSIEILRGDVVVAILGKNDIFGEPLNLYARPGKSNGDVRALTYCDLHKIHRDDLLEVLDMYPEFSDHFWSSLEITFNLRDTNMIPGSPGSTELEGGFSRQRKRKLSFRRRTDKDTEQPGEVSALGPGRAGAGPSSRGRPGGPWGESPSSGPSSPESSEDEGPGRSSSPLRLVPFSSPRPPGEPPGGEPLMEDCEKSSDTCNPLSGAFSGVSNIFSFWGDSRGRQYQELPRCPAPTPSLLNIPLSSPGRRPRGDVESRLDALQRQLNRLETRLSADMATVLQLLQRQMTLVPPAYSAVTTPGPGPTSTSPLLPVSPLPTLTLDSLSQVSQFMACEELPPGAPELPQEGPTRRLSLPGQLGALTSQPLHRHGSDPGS
Experiment: hERG inhibition assay by automated patch-clamp electrophysiology in hERG-overexpressing HEK293 cells
Type: cell-based
Settings: human
MEASURED QUANTITY: pIC50
In plain terms, pIC50 is the concentration in mol/L turned into minus its base-10 logarithm.

Sure, the documented pIC50 for C/C=C/C#CC#C/C=C/c1ccco1 [ATD, Atractylodin] is 4.65

* * *

Reported values of pIC50 for individual entries
System: Undifferentiated ReNcell VM cells
Experiment: Neuronal viability assay, undifferentiated cells (resazurin)
Format: cell-based, human
Details: Homo sapiens; undifferentiated ReNcell VM cells, 24 h, resazurin assay, 0.01-100 μM; read-out: IC50, undifferentiated ReNcell VM cell viability
pIC50: −log10 of the molar value.

>  <MOLECULE>
C=C1CCC[C@]2(C)CC[C@@H](C(C)(C)O)C[C@@H]12

>  <pIC50>
< 4.00

$$$$

Sure, the documented pIC50 for CCC/C=C1\OC(=O)C2=C1CCC=C2 [LIG, ligustilide] is < 4.00
